Tested on: SK-MEL-5 melanoma
Test: NCI-60 one-dose screen, 48 h (100 = growth as untreated, 0 = no growth, -100 = all killed)
Conditions: 10 µM
About 83,000 compounds went through this panel and 20% of them were active in at least one assay; those are over-represented in the sample as a whole.
measured parameter: growth (%)
Hi! Could you send only the number? It should be in %, unit omitted.

Give growth for Cc1ccc(NC(=O)NC2CCCCC2)cc1 tested on SK-MEL-5 melanoma.
100

Look up and report measured growth (SK-MEL-5 melanoma) for the following molecule: NC(=O)c1ccc(-c2cccc3c(=O)nc(N4CCOCC4)oc23)cc1
97.8

Report value: growth, system: SK-MEL-5 melanoma, molecule: O=C(Nc1ccncc1)C(=O)c1cn(S(=O)(=O)c2cccc3ccccc23)c2ccccc12
68

Give growth; test system SK-MEL-5 melanoma; molecule O=C(Nc1ccc(CN2CCc3nc4cc(O)c(O)cc4cc32)cc1)c1ccc(Cl)c(Cl)c1
90.7

Give growth for this entry on SK-MEL-5 melanoma: CCCCCCN1CCN(Cc2ccc(N(CC)CC)cc2)C(=O)C1=O
21.4

Give growth for Cc1ccc(-c2n[nH]c(=O)c3noc(-c4ccc(C)cc4)c23)cc1 tested on SK-MEL-5 melanoma.
15.9

Write growth of COc1cc(Nc2ccnc(NCCNc3ccnc4cc(Cl)ccc34)n2)cc(OC)c1 ; system used: SK-MEL-5 melanoma
-92.8

Look up and report measured growth (SK-MEL-5 melanoma) for the following molecule: O=C1OCC2=C1C(c1cccc(Cl)c1)c1cc3c(cc1N2CCO)CCC3 (stereo not given)
-8.14

State growth on SK-MEL-5 melanoma. Entry: CCC(=O)N1C/C(=C/c2ccc(Cl)cc2)C(=O)/C(=C/c2ccc(Cl)cc2)C1
-64.1

Specify the recorded growth for COc1cc(-c2nc(-c3nnc(-c4ccccc4Cl)o3)c3ccccn23)cc(OC)c1OC , system: SK-MEL-5 melanoma.
80.2
